Assay Summary: Pharmacokinetics after single i.p. administration
Type: in vivo, male Swiss Albino mice
Condition Parameters: male, Swiss Albino, mouse, ip; plasma, 7.5 mg/kg i.p.
Description: Pharmacokinetics studies: These studies were performed by SAI Lifesciences using Male Swiss Albino mice. OBT was resuspended in a solution formulation of 10% DMA, 10% EtOH, 10% PEG400 in 70% of (2-hydroxypropyl)-[…] (HPβCD). OBT was administered by intraperitoneal (i.p.) injection at 7.5 mg/kg. Blood samples were collected from mice, at 0, 0.08, 0.25, 0.5, 1, 2, 4, 8 and 24 hr. […] Plasma samples were quantified by LC-MS/MS method (LLOQ=1.00 ng/mL) for plasma and brain.
Readout Type: Tmax (min)
Numeric answer only, unit min assumed.

Briefly, Tmax measured for COC1=CC(=O)C(O)=C/C1=C/C=C/c1ccccc1 : 30

Just for reference, patent US12521439B2 is where these values come from.
